Where do these numbers come from? They come from ChEMBL document CHEMBL3085739.

Assay: AUC (0 to infinity) in Sprague-Dawley rat at 5 mg/kg, iv by LC/MS analysis
Format: ADME, organism-based
Parameters: time infinity, dose 5 mg/kg, route intravenous
Conditions: plasma
Readout Kind: AUC(0-inf) (ng·h/mL)
Write down the numeric answer in ng·h/mL and omit the unit.

Below: 2 compounds and their reported AUC(0-inf).
smiles_text=C=CC(=O)N1CC[C@H](N2C(=O)N(c3ccccc3)Cc3cnc(Nc4ccc(N5CCN(C)CC5)c(C)c4)nc32)C1 observed_result=1640
smiles_text=C=CC(=O)N1CC[C@H](N2C(=O)N(c3ccccc3)Cc3cnc(Nc4ccccc4)nc32)C1 observed_result=2030

Now let's try a different one.
Qu. Fill in AUC(0-inf) for record C=CC(=O)N1CC[C@H](N2C(=O)N(c3ccccc3)Cc3cnc(Nc4ccc(N5CCN(C)CC5)c(F)c4)nc32)C1
Ans. 2120

###

Molecular target: Epidermal growth factor receptor (Homo sapiens, UniProt P00533, T790M)
Sequence (P00533 25-1210 T790M limits assumed): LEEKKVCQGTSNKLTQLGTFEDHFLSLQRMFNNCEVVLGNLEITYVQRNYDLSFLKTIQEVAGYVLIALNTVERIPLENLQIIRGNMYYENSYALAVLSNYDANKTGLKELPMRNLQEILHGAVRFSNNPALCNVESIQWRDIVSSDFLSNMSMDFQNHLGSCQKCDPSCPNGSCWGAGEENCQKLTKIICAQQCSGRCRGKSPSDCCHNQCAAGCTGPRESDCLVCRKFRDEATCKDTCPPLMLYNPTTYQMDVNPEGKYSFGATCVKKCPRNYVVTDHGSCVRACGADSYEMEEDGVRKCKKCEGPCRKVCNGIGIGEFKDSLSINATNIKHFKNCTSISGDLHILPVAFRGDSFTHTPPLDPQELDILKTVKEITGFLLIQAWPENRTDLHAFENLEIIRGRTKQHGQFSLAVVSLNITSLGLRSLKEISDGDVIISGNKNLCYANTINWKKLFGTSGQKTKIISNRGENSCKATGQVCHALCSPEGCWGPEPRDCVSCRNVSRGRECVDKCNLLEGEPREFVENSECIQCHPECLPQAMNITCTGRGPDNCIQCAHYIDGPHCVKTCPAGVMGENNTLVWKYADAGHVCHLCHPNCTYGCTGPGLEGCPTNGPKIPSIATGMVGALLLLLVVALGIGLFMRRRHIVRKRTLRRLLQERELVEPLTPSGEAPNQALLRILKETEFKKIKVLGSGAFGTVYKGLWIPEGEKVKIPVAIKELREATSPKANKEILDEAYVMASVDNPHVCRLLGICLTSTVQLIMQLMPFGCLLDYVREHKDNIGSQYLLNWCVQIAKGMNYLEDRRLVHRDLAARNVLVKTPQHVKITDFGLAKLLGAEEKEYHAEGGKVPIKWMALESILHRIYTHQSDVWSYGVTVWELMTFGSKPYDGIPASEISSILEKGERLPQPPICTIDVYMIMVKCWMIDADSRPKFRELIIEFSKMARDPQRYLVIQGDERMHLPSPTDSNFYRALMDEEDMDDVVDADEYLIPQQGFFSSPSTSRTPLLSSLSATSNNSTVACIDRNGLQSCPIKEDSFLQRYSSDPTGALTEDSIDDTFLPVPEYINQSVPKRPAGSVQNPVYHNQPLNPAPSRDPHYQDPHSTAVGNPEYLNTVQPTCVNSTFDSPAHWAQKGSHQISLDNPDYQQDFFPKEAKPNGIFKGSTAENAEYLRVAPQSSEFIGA
Assay: Inhibition of EGFR T790M mutant (unknown origin)
Readout Kind: IC50 (nM)
Return type: number; implicit unit nM.

Qu. Consider the molecule C=CC(=O)N1CC[C@H](N2C(=O)N(c3ccccc3)Cc3cnc(Nc4ccc(N5CCN(C)CC5)c(C)c4)nc32)C1 and give its recorded IC50.
Ans. 10

###

Test: Oral bioavailability in Sprague-Dawley rat at 25 mg/kg by LC/MS analysis
Type: ADME, organism-based
Details: in vivo
Each entry below carries its recorded bioavailability.
Note: unit % is implicit; provide only the numeric part.

Consider the following illustrative entries.
smiles_text=C=CC(=O)N1CC[C@H](N2C(=O)N(c3ccccc3)Cc3cnc(Nc4ccc(CCN5CCN(C)CC5)cc4)nc32)C1 observed_result=40
smiles_text=C=CC(=O)N1CC[C@H](N2C(=O)N(c3ccccc3)Cc3cnc(Nc4ccccc4)nc32)C1 observed_result=44
smiles_text=C=CC(=O)N1CC[C@H](N2C(=O)N(c3ccccc3)Cc3cnc(Nc4ccc(N5CCN(C)CC5)cc4OC)nc32)C1 observed_result=44
smiles_text=C=CC(=O)N1CC[C@H](N2C(=O)N(c3ccccc3)Cc3cnc(Nc4ccc(N5CCN(C)CC5)cc4)nc32)C1 observed_result=54

For the next question, use this compound.
Qu. Tell me measured bioavailability for C=CC(=O)N1CC[C@H](N2C(=O)N(c3ccccc3)Cc3cnc(Nc4ccc(N5CCN(C)CC5)c(OC)c4)nc32)C1 please.
Ans. 20

###

Experiment: AUC (0 to infinity) in Sprague-Dawley rat at 5 mg/kg, iv by LC/MS analysis
Assay type: ADME, organism-based
Design: time infinity, dose 5 mg/kg, route intravenous
Conditions: plasma
AUC(0-inf) by entry:
Answer with a number only, understood to be in ng·h/mL.

Consider the worked cases shown below.
smiles_text=C=CC(=O)N1CC[C@H](N2C(=O)N(c3ccccc3)Cc3cnc(Nc4cccc(N5CCN(C)CC5)c4)nc32)C1 readout_kind=AUC(0-inf) observed_result=746
smiles_text=C=CC(=O)N1CC[C@H](N2C(=O)N(c3ccccc3)Cc3cnc(Nc4ccc(N5CCN(C)CC5)cc4)nc32)C1 readout_kind=AUC(0-inf) observed_result=857
smiles_text=C=CC(=O)N1CC[C@H](N2C(=O)N(Cc3ccccc3)Cc3cnc(Nc4ccc(N5CCN(C)CC5)cc4OC)nc32)C1 readout_kind=AUC(0-inf) observed_result=359
smiles_text=C=CC(=O)N1CC[C@H](N2C(=O)N(c3ccccc3)Cc3cnc(Nc4ccc(N5CCN(C)CC5)c(OC)c4)nc32)C1 readout_kind=AUC(0-inf) observed_result=949
smiles_text=C=CC(=O)N1CC[C@H](N2C(=O)N(c3ccccc3)Cc3cnc(Nc4ccc(N5CCN(C)CC5)cc4OC)nc32)C1 readout_kind=AUC(0-inf) observed_result=962
smiles_text=C=CC(=O)N1CC[C@H](N2C(=O)N(c3ccccc3)Cc3cnc(Nc4ccc(CCN5CCN(C)CC5)cc4)nc32)C1 readout_kind=AUC(0-inf) observed_result=561

Qu. Find the measured AUC(0-inf) of C=CC(=O)Nc1cccc(N2C(=O)N(Cc3ccccc3)Cc3cnc(Nc4ccc(N5CCN(C)CC5)cc4OC)nc32)c1.CS(=O)(=O)O and report it.
Ans. 1570

###

Experiment: Clearance in Sprague-Dawley rat at 25 mg/kg, po by LC/MS analysis
Type: ADME, organism-based
Set-up: dose 25 mg/kg, route oral
Conditions: in vivo
So basically, if CL/F comes in under 200 mL/min/kg it's T, and if it's 200 mL/min/kg or more it's F.

Worked set:
smiles_text=C=CC(=O)N1CC[C@H](N2C(=O)N(c3ccccc3)Cc3cnc(Nc4ccc(CCN5CCN(C)CC5)cc4)nc32)C1 label_class=F
smiles_text=C=CC(=O)N1CC[C@H](N2C(=O)N(c3ccccc3)Cc3cnc(Nc4ccc(N5CCN(C)CC5)c(F)c4)nc32)C1 label_class=T
smiles_text=C=CC(=O)N1CC[C@H](N2C(=O)N(c3ccccc3)Cc3cnc(Nc4ccc(N5CCN(C)CC5)c(OC)c4)nc32)C1 label_class=F

Now look at this one.
Qu. Find out if reported CL/F for C=CC(=O)N1CC[C@H](N2C(=O)N(Cc3ccccc3)Cc3cnc(Nc4ccc(N5CCN(C)CC5)cc4OC)nc32)C1 is less than 200 mL/min/kg
Ans. F

###

// reported bioavailability per item
Experiment: Oral bioavailability in Sprague-Dawley rat at 25 mg/kg by LC/MS analysis
Type: ADME, organism-based
Settings: in vivo
Respond numerically; units are % and should not be typed.

Solved entries (count: 2):
smiles_text=C=CC(=O)N1CC[C@H](N2C(=O)N(c3ccccc3)Cc3cnc(Nc4ccc(N5CCN(C)CC5)c(C)c4)nc32)C1 units_symbol=% observed_result=30
smiles_text=C=CC(=O)N1CC[C@H](N2C(=O)N(c3ccccc3)Cc3cnc(Nc4cccc(N5CCN(C)CC5)c4)nc32)C1 units_symbol=% observed_result=20

Qu. Look up bioavailability of C=CC(=O)N1CC[C@H](N2C(=O)N(c3ccccc3)Cc3cnc(Nc4ccc(N5CCN(C)CC5)c(F)c4)nc32)C1 and report it.
Ans. 33

Qu. Output bioavailability of C=CC(=O)N1CC[C@H](N2C(=O)N(Cc3ccccc3)Cc3cnc(Nc4ccc(N5CCN(C)CC5)cc4OC)nc32)C1
Ans. 24

###

Experiment: Thermodynamic aqueous solubility of the compound in PBS buffer at pH 6.8 after 24 hrs by HPLC analysis
Format: physicochemical
Conditions: buffer, pH 6.8, 24 h
Readout Kind: Therm solubility (µg/mL)
Answer format: numeric, µg/mL implied, no suffix.

Qu. Give reported Therm solubility value for C=CC(=O)Nc1cccc(N2C(=O)N(Cc3ccccc3)Cc3cnc(Nc4ccc(N5CCN(C)CC5)cc4OC)nc32)c1.CS(=O)(=O)O
Ans. 4

###

Assay: Thermodynamic aqueous solubility of the compound in PBS buffer at pH 6.8 after 24 hrs by HPLC analysis
Assay type: physicochemical
Settings: PBS buffer, pH 6.8; read-out: Therm_solubility
Below, each of the compounds is paired with its reported solubility thermodynamic at 24 h value.
Dear colleague, please return just the value in µg/mL, with no unit written.

Qu. Query solubility thermodynamic at 24 h for C=CC(=O)N1CCC[C@@H](N2C(=O)N(Cc3ccccc3)Cc3cnc(Nc4ccc(N5CCN(C)CC5)cc4OC)nc32)C1
Ans. 142

Qu. Give the reported solubility thermodynamic at 24 h for this compound. C=CC(=O)N1CC[C@H](N2C(=O)N(C)Cc3cnc(Nc4ccc(N5CCN(C)CC5)cc4OC)nc32)C1
Ans. 1250

Qu. Input C=CC(=O)N1CC[C@H](N2C(=O)N(c3ccccc3)Cc3cnc(Nc4ccc(CCN5CCN(C)CC5)cc4)nc32)C1 , output reported solubility thermodynamic at 24 h.
Ans. 4350

Qu. Return reported solubility thermodynamic at 24 h. Input compound: C=CC(=O)N1CC[C@H](N2C(=O)N(Cc3ccccc3)Cc3cnc(Nc4ccc(N5CCN(C)CC5)cc4OC)nc32)C1
Ans. 107

Qu. Output solubility thermodynamic at 24 h of C=CC(=O)N1CC[C@H](N2C(=O)N(C3CCCCC3)Cc3cnc(Nc4ccc(N5CCN(C)CC5)cc4OC)nc32)C1
Ans. 763

Qu. Could you please provide reported solubility thermodynamic at 24 h for C=CC(=O)N1CCC(N2C(=O)N(Cc3ccccc3)Cc3cnc(Nc4ccc(N5CCN(C)CC5)cc4OC)nc32)CC1 ? Thanks!
Ans. 9.3

Qu. In one line, give reported solubility thermodynamic at 24 h of the entry C=CC(=O)N1CCC[C@H](N2C(=O)N(Cc3ccccc3)Cc3cnc(Nc4ccc(N5CCN(C)CC5)cc4OC)nc32)C1 .
Ans. 129

###

Experiment: Clearance in Sprague-Dawley rat at 5 mg/kg, iv by LC/MS analysis
Assay type: ADME, organism-based
Design: dose 5 mg/kg, route intravenous
Conditions: in vivo
Readout Kind: clearance (mL/min/kg)
Your answer should be a plain number; it is taken to be in mL/min/kg.

Study these solved cases before continuing.
smiles_text=C=CC(=O)N1CC[C@H](N2C(=O)N(c3ccccc3)Cc3cnc(Nc4ccc(N5CCN(C)CC5)cc4)nc32)C1 units_symbol=mL/min/kg observed_result=96.7
smiles_text=C=CC(=O)N1CC[C@H](N2C(=O)N(c3ccccc3)Cc3cnc(Nc4ccc(N5CCN(C)CC5)c(F)c4)nc32)C1 units_symbol=mL/min/kg observed_result=40
smiles_text=C=CC(=O)N1CC[C@H](N2C(=O)N(c3ccccc3)Cc3cnc(Nc4ccc(N5CCN(C)CC5)c(OC)c4)nc32)C1 units_symbol=mL/min/kg observed_result=91.7

Turning now to a further molecule:
Qu. Answer with reported clearance of C=CC(=O)N1CC[C@H](N2C(=O)N(c3ccccc3)Cc3cnc(Nc4ccc(N5CCN(C)CC5)c(C)c4)nc32)C1
Ans. 51.7
